# tested_on: α7 homomeric neuronal nAChR (Rattus norvegicus)
# Construct: expressed in transfected cells; host or cells: Xenopus laevis oocytes injected with cRNA; clone from Dr. Jim Boulter (UCLA)
# Sequence (Q05941 23-502): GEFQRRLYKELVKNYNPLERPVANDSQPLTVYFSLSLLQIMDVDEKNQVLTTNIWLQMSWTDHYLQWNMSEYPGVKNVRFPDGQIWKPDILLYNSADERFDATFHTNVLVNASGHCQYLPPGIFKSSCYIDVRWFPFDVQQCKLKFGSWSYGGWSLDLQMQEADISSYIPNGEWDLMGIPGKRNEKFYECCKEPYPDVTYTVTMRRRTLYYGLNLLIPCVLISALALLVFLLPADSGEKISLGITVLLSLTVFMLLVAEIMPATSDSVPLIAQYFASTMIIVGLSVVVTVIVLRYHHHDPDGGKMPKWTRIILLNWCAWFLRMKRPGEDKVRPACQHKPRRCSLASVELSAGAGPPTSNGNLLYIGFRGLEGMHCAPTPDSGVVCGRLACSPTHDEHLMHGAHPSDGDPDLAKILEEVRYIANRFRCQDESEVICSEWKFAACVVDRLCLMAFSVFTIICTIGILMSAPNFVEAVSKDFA
# test_name: Voltage clamp of Xenopus oocytes expressing α7 nAChR
# Format: cell-based
# condition_parameters: inhibition still present after 5-minute wash; read-out: IC50 (recovery)

| smiles_representation | unit_text | IC50 |
| --- | --- | --- |
| CCCCCCC(=O)OC1CC(C)(C)NC(C)(C)C1 | µM | 16 |

###

# tested_on: Rat α3β2 (Rattus norvegicus, UniProt P04757+P12390)
# Construct: expressed in transfected cells; host or cells: Xenopus laevis oocytes injected with subunit cRNAs; clones from Dr. Jim Boulter (UCLA)
# Sequence (P04757 26-499): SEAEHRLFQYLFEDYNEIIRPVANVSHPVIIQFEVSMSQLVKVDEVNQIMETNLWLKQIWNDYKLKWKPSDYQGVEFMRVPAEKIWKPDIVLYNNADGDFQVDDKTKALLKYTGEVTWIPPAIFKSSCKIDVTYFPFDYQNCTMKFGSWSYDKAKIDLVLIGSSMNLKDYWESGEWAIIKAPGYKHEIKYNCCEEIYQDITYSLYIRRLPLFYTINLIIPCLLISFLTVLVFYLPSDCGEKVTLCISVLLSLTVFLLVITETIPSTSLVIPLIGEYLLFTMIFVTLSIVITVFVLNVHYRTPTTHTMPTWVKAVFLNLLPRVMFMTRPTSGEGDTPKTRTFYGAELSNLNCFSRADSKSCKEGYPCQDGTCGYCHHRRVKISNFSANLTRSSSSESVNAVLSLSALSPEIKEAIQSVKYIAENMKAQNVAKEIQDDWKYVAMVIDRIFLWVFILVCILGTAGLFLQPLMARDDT
# Sequence (P12390 25-500): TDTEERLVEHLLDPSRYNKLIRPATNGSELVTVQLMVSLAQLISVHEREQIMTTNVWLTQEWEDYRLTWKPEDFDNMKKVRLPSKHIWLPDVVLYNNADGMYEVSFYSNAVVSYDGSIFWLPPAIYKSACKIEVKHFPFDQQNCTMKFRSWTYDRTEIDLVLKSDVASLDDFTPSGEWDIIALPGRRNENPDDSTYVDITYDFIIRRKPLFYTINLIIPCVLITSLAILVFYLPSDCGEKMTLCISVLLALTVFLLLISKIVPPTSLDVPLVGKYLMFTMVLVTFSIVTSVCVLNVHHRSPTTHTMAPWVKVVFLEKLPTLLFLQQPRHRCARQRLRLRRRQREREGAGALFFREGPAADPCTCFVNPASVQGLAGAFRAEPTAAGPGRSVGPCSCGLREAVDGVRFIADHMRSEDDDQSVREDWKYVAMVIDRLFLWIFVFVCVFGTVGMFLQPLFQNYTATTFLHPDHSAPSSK
# test_name: Voltage clamp of Xenopus oocytes expressing rat α3β2 nAChR
# Type: cell-based
# condition_parameters: inhibition still present after 5-minute wash; read-out: IC50 (recovery)
# Description: Mature (>9 cm) female Xenopus laevis African frogs (NASCO, Ft. Atkinson, Wis.) were used as a source of oocytes. Prior to surgery, frogs were anesthetized by placing the animal in a 1.5 g/l solution of MS222 (3-aminobenzoic acid ethyl ester) for 30 minutes. […] Rat neuronal nAChR clones and mouse muscle nAChR cDNA clones were used. […] The corrected clone was expressed as above in Xenopus oocytes with β2 and β3 and compared to the wild-type α3 co-expressed with β2 and β3. […]

| smiles_representation | IC50 [nM] |
| --- | --- |
| CCCCCCC(=O)OC1CC(C)(C)NC(C)(C)C1 | 230 |

###

# tested_on: Rat α4β2 (Rattus norvegicus, UniProt P09483+P12390)
# Construct: expressed in transfected cells; host or cells: Xenopus laevis oocytes injected with subunit cRNAs; clones from Dr. Jim Boulter (UCLA)
# Sequence (P09483 31-630): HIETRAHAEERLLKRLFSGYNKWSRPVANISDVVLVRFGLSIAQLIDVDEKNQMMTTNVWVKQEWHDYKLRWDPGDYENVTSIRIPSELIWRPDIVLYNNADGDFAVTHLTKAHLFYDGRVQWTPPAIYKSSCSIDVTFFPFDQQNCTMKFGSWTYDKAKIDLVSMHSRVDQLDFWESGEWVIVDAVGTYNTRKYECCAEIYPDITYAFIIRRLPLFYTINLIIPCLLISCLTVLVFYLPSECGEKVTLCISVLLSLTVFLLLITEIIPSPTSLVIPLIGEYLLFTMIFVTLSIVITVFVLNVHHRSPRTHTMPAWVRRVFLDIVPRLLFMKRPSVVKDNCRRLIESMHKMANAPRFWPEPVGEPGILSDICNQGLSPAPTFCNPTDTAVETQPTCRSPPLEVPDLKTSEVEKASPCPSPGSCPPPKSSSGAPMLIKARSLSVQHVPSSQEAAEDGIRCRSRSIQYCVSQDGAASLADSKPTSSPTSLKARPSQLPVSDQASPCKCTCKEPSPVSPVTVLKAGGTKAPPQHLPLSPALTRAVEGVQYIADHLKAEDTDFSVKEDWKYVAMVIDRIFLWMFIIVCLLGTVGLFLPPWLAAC
# Sequence (P12390 25-500): as the sequence (P12390 25-500) above
# test_name: Voltage clamp of Xenopus oocytes expressing α4β2 nAChR
# Format: cell-based
# condition_parameters: inhibition still present after 5-minute wash; read-out: IC50 (recovery)
pIC50: −log10 of the molar value.

| compound | tested_on | pIC50 |
| --- | --- | --- |
| CCCCCCC(=O)OC1CC(C)(C)NC(C)(C)C1 [TMPH] | Rat α4β2 (Rattus norvegicus, UniProt P09483+P12390) | 6.60 |

###

# tested_on: Human α3β2α5 (Homo sapiens, UniProt P17787+P30532+P32297)
# Construct: expressed in transfected cells; host or cells: Xenopus laevis oocytes injected with subunit cRNAs
# Sequence (P32297 32-505): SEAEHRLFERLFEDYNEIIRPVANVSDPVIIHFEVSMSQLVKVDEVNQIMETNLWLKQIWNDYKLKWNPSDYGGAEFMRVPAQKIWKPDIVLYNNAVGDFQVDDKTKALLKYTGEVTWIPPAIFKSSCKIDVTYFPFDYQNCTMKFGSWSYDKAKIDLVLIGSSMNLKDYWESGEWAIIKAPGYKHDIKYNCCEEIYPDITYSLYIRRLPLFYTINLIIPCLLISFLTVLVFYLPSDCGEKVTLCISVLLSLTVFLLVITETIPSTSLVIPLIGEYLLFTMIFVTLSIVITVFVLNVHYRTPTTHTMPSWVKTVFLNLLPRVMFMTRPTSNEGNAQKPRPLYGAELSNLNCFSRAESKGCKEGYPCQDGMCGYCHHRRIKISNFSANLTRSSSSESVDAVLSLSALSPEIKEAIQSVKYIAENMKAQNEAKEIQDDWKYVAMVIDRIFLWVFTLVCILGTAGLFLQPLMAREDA
# Sequence (P17787 26-502): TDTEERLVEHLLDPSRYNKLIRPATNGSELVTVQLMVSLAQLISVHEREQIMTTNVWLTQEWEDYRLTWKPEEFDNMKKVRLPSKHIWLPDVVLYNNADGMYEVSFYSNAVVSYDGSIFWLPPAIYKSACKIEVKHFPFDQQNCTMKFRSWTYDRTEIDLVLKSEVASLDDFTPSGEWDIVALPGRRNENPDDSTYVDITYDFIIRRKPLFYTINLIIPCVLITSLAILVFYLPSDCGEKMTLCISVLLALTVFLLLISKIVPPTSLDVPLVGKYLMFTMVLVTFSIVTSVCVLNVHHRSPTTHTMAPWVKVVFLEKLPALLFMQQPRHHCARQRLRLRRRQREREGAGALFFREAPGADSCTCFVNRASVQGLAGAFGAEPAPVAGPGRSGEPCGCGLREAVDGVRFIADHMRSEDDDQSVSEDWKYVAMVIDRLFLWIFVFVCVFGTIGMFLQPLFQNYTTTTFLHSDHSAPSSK
# Sequence (P30532 23-468): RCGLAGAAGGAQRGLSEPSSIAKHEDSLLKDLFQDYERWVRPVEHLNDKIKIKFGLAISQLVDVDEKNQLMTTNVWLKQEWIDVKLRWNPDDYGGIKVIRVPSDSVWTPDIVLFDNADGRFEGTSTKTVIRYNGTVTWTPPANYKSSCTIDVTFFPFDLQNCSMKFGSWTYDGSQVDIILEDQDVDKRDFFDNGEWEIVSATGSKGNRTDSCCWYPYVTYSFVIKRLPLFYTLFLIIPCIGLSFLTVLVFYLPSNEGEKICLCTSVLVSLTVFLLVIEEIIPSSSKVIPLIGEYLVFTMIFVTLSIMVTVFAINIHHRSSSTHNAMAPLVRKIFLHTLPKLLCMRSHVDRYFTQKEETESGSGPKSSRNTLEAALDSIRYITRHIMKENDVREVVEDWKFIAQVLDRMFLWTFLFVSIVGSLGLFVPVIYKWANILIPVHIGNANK
# test_name: Voltage clamp of Xenopus oocytes expressing human α3β2α5 nAChR
# Assay type: cell-based
# condition_parameters: decrease in net charge, 1 μM ACh co-applied with TMPH; read-out: IC50 (area)
# Protocol: Mature (>9 cm) female Xenopus laevis African frogs (NASCO, Ft. Atkinson, Wis.) were used as a source of oocytes. […] Experimental protocols and data analysis. […] In other experiments (Papke et al. J. Neurochem., 2000, 75:204-216; Papke and Papke Br J of Pharmacol, 2002, 137:49-61) these concentrations were determined to be the EC74, EC15, EC22, EC17, EC40, EC70, EC55, EC70 and EC100, respectively. […]

| smiles_representation | IC50 (nM) |
| --- | --- |
| CCCCCCC(=O)OC1CC(C)(C)NC(C)(C)C1 | 430 |

###

# tested_on: Rat α3β2β3 (Rattus norvegicus, UniProt P04757+P12390+P12391)
# Construct: expressed in transfected cells; host or cells: Xenopus laevis oocytes injected with subunit cRNAs; clones from Dr. Jim Boulter (UCLA)
# Sequence (P04757 26-499): as the sequence (P04757 26-499) above
# Sequence (P12390 25-500): as the sequence (P12390 25-500) above
# Sequence (P12391 31-464): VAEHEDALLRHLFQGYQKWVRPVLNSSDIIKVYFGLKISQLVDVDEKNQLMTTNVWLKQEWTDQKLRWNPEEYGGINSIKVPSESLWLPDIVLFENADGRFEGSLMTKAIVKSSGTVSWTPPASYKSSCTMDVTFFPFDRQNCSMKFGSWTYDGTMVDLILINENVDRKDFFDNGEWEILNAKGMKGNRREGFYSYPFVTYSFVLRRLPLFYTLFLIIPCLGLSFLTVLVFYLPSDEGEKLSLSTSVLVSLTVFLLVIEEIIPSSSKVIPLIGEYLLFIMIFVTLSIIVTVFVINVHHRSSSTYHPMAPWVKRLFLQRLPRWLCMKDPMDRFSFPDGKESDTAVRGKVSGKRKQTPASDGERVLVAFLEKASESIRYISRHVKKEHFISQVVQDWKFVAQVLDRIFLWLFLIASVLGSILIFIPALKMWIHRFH
# test_name: Voltage clamp of Xenopus oocytes expressing α3β2β3 nAChR
# Type: cell-based
# condition_parameters: decrease in net charge, 100 μM ACh co-applied with TMPH; read-out: IC50 (area)
pIC50: −log10 of the molar value.
observation_type: pIC50

| smiles_representation | tested_on | observation_type | observed_result |
| --- | --- | --- | --- |
| CCCCCCC(=O)OC1CC(C)(C)NC(C)(C)C1 | Rat α3β2β3 (Rattus norvegicus, UniProt P04757+P12390+P12391) | pIC50 | 5.57 |
